- System: F1*sub RNA substrate (template-directed ligation)
- assay text: fraction ligated after 30 min (ligated reads / total reads); higher = more ligase activity; sequences stand for … in GAGACCGCAACTGAAAAGTTGT…AGTTCTGCACGTAGAAGCAAAAGGC
- protocol conditions: 42 °C
test readout: fraction ligated
A bare number is all that is needed in reply.

Past entries and their recorded results:
- TATCACTTGTCTAAGACACTTTGGTGGGTTG [3d1894]: 0.0778
- TTCCTTGTCGTAAGACACTTTGGTGGGTTGA [3d312]: 0.204
- ATCCTTTCGTAAGACACTTTGGATGGGTTGA [3d68]: 0.791
- TATCACTTGTGTAAGACACTTTATGGGTTGA [3d1793]: 0.0875
- ATCACTTGTCGTAAACATTTGGATGGGTTGA [3d213]: 0.777

# next sequence below
**Query** Name the recorded fraction ligated for TATCACTTGTCGAGACACTTTGGATGGGTTG [3d1914] .
**Result** 0.797
